Consider the following binders; for each one, report its SPOT peptide array binding signal intensity.
- TARGET_UNDER_TEST: AgHse1
- EXPERIMENT_SUMMARY: SPOT peptide array binding signal intensity (averaged, normalized) (arbitrary units (background-subtracted, floor 0; scale differs between SH3 domains)); higher = stronger binding of the SH3 domain to the peptide
Lab note: record the figure alone, no unit after it.

Prompt line: Give a short answer stating reported SPOT peptide array binding signal intensity for KRKRRLPVSEDTNTK .
Response line: 656

Prompt line: Give a short answer stating reported SPOT peptide array binding signal intensity for KDKSRPPRPPPKPLH .
Response line: 27

Prompt line: Give a short answer stating reported SPOT peptide array binding signal intensity for VSKLRSPNTPRRLRK .
Response line: 352

Prompt line: Give a short answer stating reported SPOT peptide array binding signal intensity for VRTRRRPPPPPIPST .
Response line: 29

Prompt line: Give a short answer stating reported SPOT peptide array binding signal intensity for QPQRTAPKPPISAPR .
Response line: 14

Prompt line: Give a short answer stating reported SPOT peptide array binding signal intensity for KRKRFNLLLPKPYLT .
Response line: 745
